# Tested on: Escherichia coli BW25113
# experiment.summary: plate-normalized OD600 growth (mean of duplicates) (OD600 (normalized)); higher = more growth (less inhibition)
# test.settings: temperature: 37°C; 24 h; 10 µM
The full ranking holds about 2,300 compounds; the median of “plate-normalized OD600 growth (mean of duplicates)” is about 0.29, and the lowest 2% start at about 0.22. Only a selection was taken, and the lowest values are over-represented in it overall.
measured.endpoint: plate-normalized OD600 growth

QUERY: Recorded plate-normalized OD600 growth for CSc1nc2sc(C)c(C)c2c(=O)n1-c1ccccc1 , please?
RESULT: 0.653

QUERY: What value of plate-normalized OD600 growth has been reported for the following compound? O=C1C(Cl)=C(Oc2cc(Cl)c(Cl)cc2Cl)C(=O)c2ccccc21
RESULT: 0.613

QUERY: Recorded plate-normalized OD600 growth for Nc1c(C(=O)c2ccc(Br)cc2)sc2nc(-c3cccs3)cc(C(F)(F)F)c12 , please?
RESULT: 0.578

QUERY: Consider the compound shown here: CC(C(=O)O)C(=O)c1cc(Cl)c(Cl)cc1Cl (stereo unspecified) What is its recorded plate-normalized OD600 growth?
RESULT: 0.63

QUERY: Reported plate-normalized OD600 growth for Cc1ccc(C(=O)c2sc3nc(-c4cccs4)cc(C(F)(F)F)c3c2N)cc1 : what is it?
RESULT: 0.623

QUERY: Return reported plate-normalized OD600 growth; argument: COc1cc(Cl)c(Cl)cc1Cl
RESULT: 0.604

###

# Test system: Escherichia coli BW25113
# experiment.summary: plate-normalized OD600 growth (mean of duplicates) (OD600 (normalized)); higher = more growth (less inhibition)
# test.settings: temperature: 15°C; 48 h; 10 µM
Over roughly 2,300 compounds, “plate-normalized OD600 growth (mean of duplicates)” has its median near 0.29; the lowest 2% begin near 0.22. For the sample, the lowest values were picked, then their nearest neighbours and some compounds at random.
measured.endpoint: plate-normalized OD600 growth
Give only the figure.

QUERY: What measured plate-normalized OD600 growth goes with C/C(CC(=O)Nc1ccc(N(C)C)cc1)=N\NC(=O)COc1ccc(C)cc1 ?
RESULT: 0.236

QUERY: State the recorded plate-normalized OD600 growth for this entry: Nc1c(C(=O)c2ccc(Br)cc2)sc2nc(-c3ccccc3)cc(-c3ccccc3)c12
RESULT: 0.256

QUERY: Name the recorded plate-normalized OD600 growth for Nc1c(C(=O)c2ccc(Br)cc2)sc2nc(-c3cccs3)cc(C(F)(F)F)c12 .
RESULT: 0.142

QUERY: Return reported plate-normalized OD600 growth; argument: O=C(CNC(=O)C(c1ccccc1)c1ccccc1)N/N=C/c1ccc(-c2ccc(Cl)c(Cl)c2)o1
RESULT: 0.238

QUERY: Tell me the measured plate-normalized OD600 growth of Cc1ccc(C(=O)c2sc3nc(-c4cccs4)cc(C(F)(F)F)c3c2N)cc1 , please.
RESULT: 0.239

###

Give measured plate-normalized OD600 growth for each item. Keep answers brief.
# System: Escherichia coli BW25113
# experiment.summary: plate-normalized OD600 growth (mean of duplicates) (OD600 (normalized)); higher = more growth (less inhibition)
# test.settings: temperature: 37°C; 24 h; 10 µM
The full ranking holds about 2,300 compounds; the median of “plate-normalized OD600 growth (mean of duplicates)” is about 0.29, and the lowest 2% start at about 0.22. The entries come from a sample that favours the lowest values as a whole.
Response field accepts a number only; no unit should be typed.

QUERY: Field: plate-normalized OD600 growth (Escherichia coli BW25113). Entry: c1ccc(-c2cc3c(nn2)CCc2nonc2-3)cc1
RESULT: 0.648

QUERY: Which plate-normalized OD600 growth is reported with Escherichia coli BW25113 for this entry: CC(C)c1ncc(C(O)c2cccc3ccccc23)n1C (stereo unspecified) ?
RESULT: 0.63

QUERY: GET /values?readout=plate-normalized OD600 growth&system=Escherichia coli BW25113&item= COC(=O)CN1C(=O)C2(C(C#N)=C(N)Oc3n[nH]c(C)c32)c2ccccc21 (stereo unspecified)
RESULT: 0.65

QUERY: Requested read-out plate-normalized OD600 growth, target or system Escherichia coli BW25113, entry N#CCC(=O)N(Cc1ccccc1F)C(=O)NC1CCCCC1
RESULT: 0.647

QUERY: Provide the documented plate-normalized OD600 growth with Escherichia coli BW25113 as the system for N=c1c(S(=O)(=O)c2ccccc2)c(N)c(CO)c2sc3ccccc3n12
RESULT: 0.601

QUERY: GET /values?readout=plate-normalized OD600 growth&system=Escherichia coli BW25113&item= COc1c(Cl)cnc(Cl)c1C(N)=O
RESULT: 0.636

QUERY: // fetch Escherichia coli BW25113 plate-normalized OD600 growth for COc1ccc2[nH]c(C)c(CCNS(=O)(=O)c3cc(Cl)ccc3Cl)c2c1
RESULT: 0.606

QUERY: Param readout = plate-normalized OD600 growth; param system = Escherichia coli BW25113; param query = N#C/C(=C\c1ccc(OC(=O)c2cccc([N+](=O)[O-])c2)cc1)C(=O)c1ccccc1 ; response: value
RESULT: 0.634

QUERY: API: value(readout= plate-normalized OD600 growth, system= Escherichia coli BW25113, query= C/C(CC(=O)Nc1ccc(N(C)C)cc1)=N\NC(=O)COc1ccc(C)cc1 )
RESULT: 0.627

QUERY: Any idea what plate-normalized OD600 growth came out for Cc1ccc(NC(=O)CCN2CCN(c3ccccc3)CC2)cc1 on Escherichia coli BW25113?
RESULT: 0.612

QUERY: API: value(readout= plate-normalized OD600 growth, system= Escherichia coli BW25113, query= Cc1ccc(N=Cc2ccc(Sc3nc4ccccc4s3)o2)cc1 )
RESULT: 0.625
